Values from patent US9527898B2

systemUnderTest: human glucagon receptor (human, UniProt P47871)
testMethodNotes: cell-based or functional assay
Non-standard residues stand in square brackets, D forms with d. No end group written: not given here. *: point of attachment. Acetyl(2-(4-imidazolyl)) = O=C(Cc1c[nH]cn1)*; Aib = CC(C)(N)C(=O)O
Reported EC50 (nM), cAMP, CHO/GCGR values are given for each entry in this list.

{"columns": ["binder", "EC50 (nM), cAMP, CHO/GCGR"],
 "data": [
  ["HGEGTFTSDLSRQMEEEAVRLFIEWAAHSQGTFTSDYSRYLDK (not fully specified (residue 1, N-terminus); also: N-terminal CA (4-imidazoacetyl), whether it replaces His1 not given here) [oxyntomodulin derivative of SEQ ID NO. 11]", "> 1000 nM"],
  ["H[Aib]QGTFTSDYSKYLDEKRAKEFVCWLMNT [oxyntomodulin derivative of SEQ ID NO. 23]", "5.8 nM"],
  ["{Acetyl(2-(4-imidazolyl))}-HGEGTFTSDLSRQMEEEAVRLFIEWAAHSQGTFTSDYSKYLD [oxyntomodulin derivative of SEQ ID NO. 6]", "> 1000 nM"],
  ["HSQGTFTSDYSRYLDEEAVELFIEWLMNTK [oxyntomodulin derivative of SEQ ID NO. 13]", "> 1000 nM"],
  ["H[Aib]QGTFTSDYSKYLDEKRAKEFVQWLMNT [oxyntomodulin derivative of SEQ ID NO. 28]", "0.3 nM"]
]}
